This collection of values is drawn from the supplement of paper PMC10065799.

# system_name: Fyn (UniProt P06241)
# Sequence (P06241 whole entry, looked up): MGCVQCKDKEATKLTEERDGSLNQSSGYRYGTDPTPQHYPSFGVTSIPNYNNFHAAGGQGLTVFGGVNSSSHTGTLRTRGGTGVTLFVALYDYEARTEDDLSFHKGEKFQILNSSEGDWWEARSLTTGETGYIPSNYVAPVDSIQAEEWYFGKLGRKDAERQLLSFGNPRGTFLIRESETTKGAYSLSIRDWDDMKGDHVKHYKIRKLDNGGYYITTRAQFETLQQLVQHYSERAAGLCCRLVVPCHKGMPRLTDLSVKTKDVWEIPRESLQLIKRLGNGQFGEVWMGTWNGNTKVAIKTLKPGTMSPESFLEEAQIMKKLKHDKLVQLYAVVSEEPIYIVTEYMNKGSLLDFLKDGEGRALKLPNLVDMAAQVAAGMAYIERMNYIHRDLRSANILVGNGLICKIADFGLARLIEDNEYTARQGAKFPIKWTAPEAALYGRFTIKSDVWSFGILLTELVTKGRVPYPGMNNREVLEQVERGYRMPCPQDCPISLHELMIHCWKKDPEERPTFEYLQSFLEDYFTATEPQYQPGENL
# test_description: phosphorylation enrichment, bacterial display (enrichment ratio); higher = better substrate or ligand; peptides without Tyr show the background;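 also: 11-residue human phosphosite peptides and single-mutation variants displayed on the E. coli surface, counted by deep sequencing, each peptide's frequency after selection divided by its frequency in the unselected input library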;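 also: frequency after pTyr selection over input frequency; kinase dosed for 20-30% of maximal phosphorylation in three min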
measurement_name: phosphorylation enrichment

>>> df
                residue_string            measurement_name  test_result
0  LFSINYLHFGE [KDM4C_Y201_YF]  phosphorylation enrichment        0.624

Give recorded phosphorylation enrichment. VGTKRYMALEV [ACVRL1_Y375_P378L]
0.429

Give recorded phosphorylation enrichment. SARVRYLMAEK [LDHB_Y173_F171V]
0.43

Give recorded phosphorylation enrichment. KLFRVYCDMNT [FGB_Y269_P265L_YF]
0.463
